Data origin: the supplement of paper PMC3353916

system: Sindbis virus TE/5'2J-GFP; test: percent infected (GFP+ in RFP+ ISG-expressing cells); higher = more infection (less antiviral activity); details: experiment: confirmatory screen 2; BHK/HA-Zeo (control)
Here the recorded percent infected is given for each entry.
Use % as the unit, but write only the number.

{"seq string": "MGAQLCFEANAKAPREALRFHAEAKGAQVRLDTRGCIAHRRTTFHDGIVFSQRPVRLGERVALRVLREESGWCGGLRVGFTRLDPACVSVPSLPPFLCPDLEEQSPTWAAVLPEGCALTGDLVRFWVDRRGCLFAKVNAGCRLLLREGVPVGAPLWAVMDVYGTTKAIELLDPTASRLPTPMPWDLSNKAVPEPKATPGEECAICFYHAANTRLVPCGHTYFCRYCAWRVFSDTAKCPVCRWQIEAVAPAQGPPALRVEEGS [LINCR]", "unit label": "%", "experimental result": 94.5}

Turning to the following sequence.
Request: # get_value(readout= percent infected, system= Sindbis virus TE/5'2J-GFP) for MSSENCFVAENSSLHPESGQENDATSPHFSTRHEGSFQVPVLCAVMNVVFITILIIALIALSVGQYNCPGQYTFSMPSDSHVSSCSEDWVGYQRKCYFISTVKRSWTSAQNACSEHGATLAVIDSEKDMNFLKRYAGREEHWVGLKKEPGHPWKWSNGKEFNNWFNVTGSDKCVFLKNTEVSSMECEKNLYWICNKPYK [CD69]
Result: 94

* * *

system: Sindbis virus TE/5'2J-GFP; assay: percent infected (GFP+ in RFP+ ISG-expressing cells); higher = more infection (less antiviral activity); conditions: experiment: confirmatory screen 1; BHK/HA-Zeo (control)
endpoint: percent infected
Show the value, then the unit it is measured in.

Request: Can you look up the measured percent infected of MGAQLCFEANAKAPREALRFHAEAKGAQVRLDTRGCIAHRRTTFHDGIVFSQRPVRLGERVALRVLREESGWCGGLRVGFTRLDPACVSVPSLPPFLCPDLEEQSPTWAAVLPEGCALTGDLVRFWVDRRGCLFAKVNAGCRLLLREGVPVGAPLWAVMDVYGTTKAIELLDPTASRLPTPMPWDLSNKAVPEPKATPGEECAICFYHAANTRLVPCGHTYFCRYCAWRVFSDTAKCPVCRWQIEAVAPAQGPPALRVEEGS [LINCR] for me?
Result: 97.1%

Request: Fill blank: measured percent infected of the sequence MLQRGLWPWRTRLLPTPGTWRPARPWPLPPPPQVLRVKLCGNVKYYQSHHYSTVVPPDEITVIYRHGLPLVTLTLPSRKERCQFVVKPMLSTVGSFLQDLQNEDKGIKTAAIFTADGNMISASTLMDILLMNDFKLVINKIAYDVQCPKREKPSNEHTAEMEHMKSLVHRLFTILHLEESQKKREHHLLEKIDHLKEQLQPLEQVKAGIEAHSEAKTSGLLWAGLALLSIQGGALAWLTWWVYSWDIMEPVTYFITFANSMVFFAYFIVTRQDYTYSAVKSRQFLQFFHKKSKQQHFDVQQYNKLKEDLAKAKESLKQARHSLCLQMQVEELNEKN [CCDC109B] is ____.
Result: 92.6%

Request: Recorded percent infected of MERISAFFSSIWDTILTKHQEGIYNTICLGVLLGLPLLVIITLLFICCHCCWSPPGKRGQQPEKNKKKKKKKKKKDEEDLWISAQPKLLQMEKRPSLPV [KIAA0040] , please.
Result: 93.9%

* * *

system: Sindbis virus TE/5'2J-GFP; assay: percent infected (GFP+ in RFP+ ISG-expressing cells); higher = more infection (less antiviral activity); settings: experiment: confirmatory screen 2; BHK/NZAP-Zeo (ZAP)
Measured percent infected values are reported for all entries that follow.
Reply with just the number (in %).

{"seq string": "MRSARSTALNRGEQRAVRYYSHMKLNMAEEEDYMSDSFINVQEDIRPGLPMLRQIREARRKEEKQQEANLKNRQKSLKEEEQERRDIGLKNALGCENKGFALLQKMGYKSGQALGKSGGGIVEPIPLNIKTGKSGIGHEASLKRKAEEKLESYRKKIHMKNQAEEKAAEQFRMRLKNKQDEMKLEGDLRRSQRACQQLDVQKNIQVPREAWYWLRLEEETEEDEEEKEQDEDEYKSEDLSVLEKLQILTSYLREEHLYCIWCGTAYEDKEDLSSNCPGPTSADHD [CCDC75]", "assayed target": "Sindbis virus TE/5'2J-GFP", "experimental result": 95.4}

// moving on: another record for percent infected
Request: Bench note: what percent infected did MPVERMRMRPWLEEQINSNTIPGLKWLNKEKKIFQIPWMHAARHGWDVEKDAPLFRNWAIHTGKHQPGVDKPDPKTWKANFRCAMNSLPDIEEVKDKSIKKGNNAFRVYRMLPLSERPSKKGKKPKTEKEDKVKHIKQEPVESSLGLSNGVSDLSPEYAVLTSTIKNEVDSTVNIIVVGQSHLDSNIENQEIVTNPPDICQVVEVTTESDEQPVSMSELYPLQISPVSSYAESETTDSVPSDEESAEGRPHWRKRNIEGKQYLSNMGTRGSYLLPGMASFVTSNKPDLQVTIKEESNPVPYNSSWPPFQDLPLSSSMTPASSSSRPDRETRASVIKKTSDITQARVKSC [IRF2] show?
Result: 60.4

* * *

Quick reference: percent infected of the listed items.
tested on: Sindbis virus TE/5'2J-GFP; assay: percent infected (GFP+ in RFP+ ISG-expressing cells); higher = more infection (less antiviral activity); conditions: experiment: confirmatory screen 1; BHK/HA-Zeo (control)
Respond with the bare value in %.

{"seq string": "MPSLWDRFSSSSTSSSPSSLPRTPTPDRPPRSAWGSATREEGFDRSTSLESSDCESLDSSNSGFGPEEDTAYLDGVSLPDFELLSDPEDEHLCANLMQLLQESLAQARLGSRRPARLLMPSQLVSQVGKELLRLAYSEPCGLRGALLDVCVEQGKSCHSVGQLALDPSLVPTFQLTLVLRLDSRLWPKIQGLFSSANSPFLPGFSQSLTLSTGFRVIKKKLYSSEQLLIEEC [DDIT4]", "percent infected [%]": 95.2}
{"seq string": "MMAQSKANGSHYALTAIGLGMLVLGVIMAMWNLVPGFSAAEKPTAQGSNKTEVGGGILKSKTFSVAYVLVGAGVMLLLLSICLSIRDKRKQRQGEDLAHVQHPTGAGPHAQEEDSQEEEEEDEEAASRYYVPSYEEVMNTNYSEARGEEQNPRLSISLPSYESLTGLDETTPTSTRADVEASPGNPPDRQNSKLAKRLKPLKVRRIKSEKLHLKDFRINLPDKNVPPPSIEPLTPPPQYDEVQEKAPDTRPPD [TMEM51]", "percent infected [%]": 94.9}
{"seq string": "MNTIVFNKLSGAVLFEDGGASERERGGRPYSGVLDSPHARPEVGIPDGPPLKDNLGLRHRRTGARQNGGKVRHKRQALQDMARPLKQWLYKHRDNPYPTKTEKILLALGSQMTLVQVSNWFANARRRLKNTVRQPDLSWALRIKLYNKYVQGNAERLSVSSDDSCSEDGENPPRTHMNEGGYNTPVHHPVIKSENSVIKAGVRPESRASEDYVAPPKYKSSLLNRYLNDSLRHVMATNTTMMGKTRQRNHSGSFSSNEFEEELVSPSSSETEGNFVYRTDTLENGSNKGESAANRKGPSKDDTYWKEINAAMALTNLAQGKDKLQGTTSCIIQKSSHIAEVKTVKVPLVQQF [MKX]", "percent infected [%]": 95}

Now for a further sequence.
Request: Would you mind telling me what percent infected value was observed for MASGRARCTRKLRNWVVEQVESGQFPGVCWDDTAKTMFRIPWKHAGKQDFREDQDAAFFKAWAIFKGKYKEGDTGGPAVWKTRLRCALNKSSEFKEVPERGRMDVAEPYKVYQLLPPGIVSGQPGTQKVPSKRQHSSVSSERKEEEDAMQNCTLSPSVLQDSLNNEEEGASGGAVHSDIGSSSSSSSPEPQEVTDTTEAPFQGDQRSLEFLLPPEPDYSLLLTFIYNGRVVGEAQVQSLDCRLVAEPSGSESSMEQVLFPKPGPLEPTQRLLSQLERGILVASNPRGLFVQRLCPIPISWNAPQAPPGPGPHLLPSNECVELFRTAYFCRDLVRYFQGLGPPPKFQVTLNFWEESHGSSHTPQNLITVKMEQAFARYLLEQTPEQQAAILSLV [IRF9] ?
Result: 95.7

* * *

system: Sindbis virus TE/5'2J-GFP; experiment: percent infected (GFP+ in RFP+ ISG-expressing cells); higher = more infection (less antiviral activity); conditions: experiment: confirmatory screen 3; BHK/HA-Zeo (control)
endpoint: percent infected
Dear colleague, please send the value followed by its unit.

Example entries and their recorded answers appear below.
{"seq string": "MFAKGKGSAVPSDGQAREKLALYVYEYLLHVGAQKSAQTFLSEIRWEKNITLGEPPGFLHSWWCVFWDLYCAAPERRDTCEHSSEAKAFHDYSAAAAPSPVLGNIPPNDGMPGGPIPPGFFQGPPGSQPSPHAQPPPHNPSSMMGPHSQPFMSPRYAGGPRPPIRMGNQPPGGVPGTQPLLPNSMDPTRQQGHPNMGGSMQRMNPPRGMGPMGPGPQNYGSGMRPPPNSLGPAMPGINMGPGAGRPWPNPNSANSIPYSSSSPGTYVGPPGGGGPPGTPIMPSPADSTNSSDNIYTMINPVPPGGSRSNFPMGPGSDGPMGGMGGMEPHHMNGSLGSGDIDGLPKNSPNNISGISNPPGTPRDDGELGGNFLHSFQNDNYSPSMTMSV [SSBP3]", "percent infected": "83.3%"}
{"seq string": "MAQASPPRPERVLGASSPEARPAQEALLLPTGVFQVAEKMEKRTCALCPKDVEYNVLYFAQSENIAAHENCLLYSSGLVECEDQDPLNPDRSFDVESVKKEIQRGRKLKCKFCHKRGATVGCDLKNCNKNYHFFCAKKDDAVPQSDGVRGIYKLLCQQHAQFPIIAQSAKFSGVKRKRGRKKPLSGNHVQPPETMKCNTFIRQVKEEHGRHTDATVKVPFLKKCKEAGLLNYLLEEILDKVHSIPEKLMDETTSESDYEEIGSALFDCRLFEDTFVNFQAAIEKKIHASQQRWQQLKEEIELLQDLKQTLCSFQENRDLMSSSTSISSLSY [PHF11]", "percent infected": "89.1%"}
{"seq string": "MALLLALSLLVLWTSPAPTLSGTNDAEDCCLSVTQKPIPGYIVRNFHYLLIKDGCRVPAVVFTTLRGRQLCAPPDQPWVERIIQRLQRTSAKMKRRSS [CCL19]", "percent infected": "92.8%"}

Attention now turns to another entry.
Request: Form: Entry = MIAAQAKLVYQLNKYYTERCQARKAAIAKTIREVCKVVSDVLKEVEVQEPRFISSLSEIDARYEGLEVISPTEFEVVLYLNQMGVFNFVDDGSLPGCAVLKLSDGRKRSMSLWVEFITASGYLSARKIRSRFQTLVAQAVDKCSYRDVVKMIADTSEVKLRIRERYVVQITPAFKCTGIWPRSAAQWPMPHIPWPGPNRVAEVKAEGFNLLSKECYSLTGKQSSAESDAWVLQFGEAENRLLMGGCRNKCLSVLKTLRDRHLELPGQPLNNYHMKTLLLYECEKHPRETDWDESCLGDRLNGILLQLISCLQCRRCPHYFLPNLDLFQGKPHSALESAAKQTWRLAREILTNPKSLDKL [MAB21L2] | System = Sindbis virus TE/5'2J-GFP | percent infected = ____;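 also: Interferon-defective BHK-21 derivatives, ZAP line overexpressing the rat ZAP N-terminal zinc finger domain fused to Zeocin resistance, GFP scored within live singlet TagRFP+ cells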
Result: 85.5%
